system: Trichoderma virens ATCC 9645; test: growth yield (OD600) with compound + IPBC relative to untreated control; higher = less growth inhibition; conditions: compound concentration: 100 uM; IPBC concentration: 200 ng/ml; 72 h
Where a name gives a salt, the structure may show the parent alone. Out of some 1,300 compounds screened, about 130 (10%) showed an effect of 50% or more. The sample holds strong results, similar compounds and a random draw of the others, so the mix is not that of the screen.
Here the recorded growth yield is given for each entry.
Record the result as a number with its unit.

Examples from the recorded data:
- COMPOUND: "CC[C@H]1OC(=O)[C@H](C)[C@@H](O[C@H]2C[C@@](C)(OC)[C@@H](O)[C@H](C)O2)[C@H](C)[C@@H](O[C@@H]2O[C@H](C)C[C@H](N(C)C)[C@H]2O)[C@](C)(O)C[C@@H](C)CN(C)[C@H](C)[C@@H](O)[C@]1(C)O [Azithromycin] + CCCCNC(=O)OCC#CI [3-iodo-2-propynyl butylcarbamate (IPBC)]"
  growth yield: "106%"
- COMPOUND: "COc1cc(NS(=O)(=O)c2ccc(N)cc2)nc(OC)n1 [Sulfadimethoxine] + CCCCNC(=O)OCC#CI [3-iodo-2-propynyl butylcarbamate (IPBC)]"
  growth yield: "114%"
- COMPOUND: "CC[C@H]1OC(=O)[C@H](C)[C@@H](O[C@H]2C[C@@](C)(OC)[C@@H](O)[C@H](C)O2)[C@H](C)[C@@H](O[C@@H]2O[C@H](C)C[C@H](N(C)C)[C@H]2O)[C@](C)(O)C[C@@H](C)C(=O)[C@H](C)[C@@H](O)[C@]1(C)O [Erythromycin] + CCCCNC(=O)OCC#CI [3-iodo-2-propynyl butylcarbamate (IPBC)]"
  growth yield: "50.8%"
- COMPOUND: "CN(C)CCc1c[nH]c2ccc(C[C@H]3COC(=O)N3)cc12 [Zolmitriptan] + CCCCNC(=O)OCC#CI [3-iodo-2-propynyl butylcarbamate (IPBC)]"
  growth yield: "96.3%"

Exam item: Any idea what growth yield was measured for CCC(C)(CN(C)C)OC(=O)c1ccccc1 (stereo not given) [Amyleine hydrochloride] + CCCCNC(=O)OCC#CI [3-iodo-2-propynyl butylcarbamate (IPBC)] ?
Marked response: 92%

----------
Measured growth yield of individual entries
test system: Trichoderma virens ATCC 9645; test: growth yield (OD600) with compound + IPBC relative to untreated control; higher = less growth inhibition; settings: compound concentration: 100 uM; IPBC concentration: 200 ng/ml; 72 h
Counter-ions that a name gives are not always drawn. Among all 1,300 compounds or so, about 130 (10%) showed an effect of 50% or more. The sample as a whole holds a higher share of strong results than the screen did.
// units = %; emit number, no label

Look over these answered cases.
- COMPOUND: "COc1ccc(OC)c(C(O)C(C)N)c1 (stereo not given) [Methoxamine hydrochloride] + CCCCNC(=O)OCC#CI [3-iodo-2-propynyl butylcarbamate (IPBC)]"
  TARGET_DESC: "Trichoderma virens ATCC 9645"
  UNIT_INFO: "%"
  QUANTITATIVE_READOUT: 92.4
- COMPOUND: "COc1ccccc1Oc1c(NS(=O)(=O)c2ccc(C(C)(C)C)cc2)nc(-c2ncccn2)nc1OCCO [Bosentan] + CCCCNC(=O)OCC#CI [3-iodo-2-propynyl butylcarbamate (IPBC)]"
  TARGET_DESC: "Trichoderma virens ATCC 9645"
  UNIT_INFO: "%"
  QUANTITATIVE_READOUT: 114
- COMPOUND: "CC(C)[C@H](N)C(=O)OCCOCn1cnc2c(=O)nc(N)[nH]c21 [Valacyclovir hydrochloride] + CCCCNC(=O)OCC#CI [3-iodo-2-propynyl butylcarbamate (IPBC)]"
  TARGET_DESC: "Trichoderma virens ATCC 9645"
  UNIT_INFO: "%"
  QUANTITATIVE_READOUT: 96.4
- COMPOUND: "Cc1nnc(NS(=O)(=O)c2ccc(N)cc2)s1 [Sulfamethizole] + CCCCNC(=O)OCC#CI [3-iodo-2-propynyl butylcarbamate (IPBC)]"
  TARGET_DESC: "Trichoderma virens ATCC 9645"
  UNIT_INFO: "%"
  QUANTITATIVE_READOUT: 97.3
- COMPOUND: "C=C(C)[C@@H]1[C@H]2OC(=O)[C@@H]1[C@]1(O)C[C@H]3O[C@]34C(=O)O[C@H]2[C@]14C [Picrotoxinin] + CCCCNC(=O)OCC#CI [3-iodo-2-propynyl butylcarbamate (IPBC)]"
  TARGET_DESC: "Trichoderma virens ATCC 9645"
  UNIT_INFO: "%"
  QUANTITATIVE_READOUT: 97.1
- COMPOUND: "N=C(NCCCCCCNC(=N)NC(=N)Nc1ccc(Cl)cc1)NC(=N)Nc1ccc(Cl)cc1 [Chlorhexidine] + CCCCNC(=O)OCC#CI [3-iodo-2-propynyl butylcarbamate (IPBC)]"
  TARGET_DESC: "Trichoderma virens ATCC 9645"
  UNIT_INFO: "%"
  QUANTITATIVE_READOUT: 3.67
- COMPOUND: "C=C1C[C@@H]2[C@H](CC[C@]3(C)C(=O)CC[C@@H]23)[C@@]2(C)C=CC(=O)C=C12 [Exemestane] + CCCCNC(=O)OCC#CI [3-iodo-2-propynyl butylcarbamate (IPBC)]"
  TARGET_DESC: "Trichoderma virens ATCC 9645"
  UNIT_INFO: "%"
  QUANTITATIVE_READOUT: 77.6
- COMPOUND: "C[C@]12C=CC(=O)C=C1CC[C@@H]1[C@@H]2C(=O)C[C@@]2(C)[C@H]1CC[C@]2(O)C(=O)CO [Prednisone] + CCCCNC(=O)OCC#CI [3-iodo-2-propynyl butylcarbamate (IPBC)]"
  TARGET_DESC: "Trichoderma virens ATCC 9645"
  UNIT_INFO: "%"
  QUANTITATIVE_READOUT: 91.5

Exam item: Looking for the measured growth yield of N=C(N)NC(=N)NCCc1ccccc1 [Phenformin hydrochloride] + CCCCNC(=O)OCC#CI [3-iodo-2-propynyl butylcarbamate (IPBC)] , can you help?
Marked response: 92

Exam item: What value of growth yield has been recorded for this entry: O=C(Nc1ccc([N+](=O)[O-])cc1Cl)c1cc(Cl)ccc1O [Niclosamide] + CCCCNC(=O)OCC#CI [3-iodo-2-propynyl butylcarbamate (IPBC)]
Marked response: 90.4

----------
test system: Trichoderma virens ATCC 9645; test: growth yield (OD600) with compound + IPBC relative to untreated control; higher = less growth inhibition; conditions: compound concentration: 100 uM; IPBC concentration: 200 ng/ml; 72 h
Where a name gives a salt, the structure may show the parent alone. Out of some 1,300 compounds screened, about 130 (10%) showed an effect of 50% or more. This excerpt belongs to a sample that is enriched for strong results.
MEASURED_PARAMETER: growth yield (%)
Give the number; % is assumed, so skip it.

Here is how some molecules turned out for growth yield.
- MOLECULE: "CCCCCCNC(=O)n1cc(F)c(=O)[nH]c1=O [Carmofur] + CCCCNC(=O)OCC#CI [3-iodo-2-propynyl butylcarbamate (IPBC)]"
  growth yield, %: 31.4
- MOLECULE: "Cc1cc(CC(=O)O)n(C)c1C(=O)c1ccc(Cl)cc1 [Zomepirac sodium salt] + CCCCNC(=O)OCC#CI [3-iodo-2-propynyl butylcarbamate (IPBC)]"
  growth yield, %: 92.4

Exam item: // map CCn1cc(C(=O)O)c(=O)c2cc(F)c(N3CCNCC3)nc21 [Enoxacin] + CCCCNC(=O)OCC#CI [3-iodo-2-propynyl butylcarbamate (IPBC)] to recorded growth yield (system: Trichoderma virens ATCC 9645)
Marked response: 87

Exam item: So what growth yield did CC(C)OC(=O)C(C)(C)Oc1ccc(C(=O)c2ccc(Cl)cc2)cc1 [Fenofibrate] + CCCCNC(=O)OCC#CI [3-iodo-2-propynyl butylcarbamate (IPBC)] get with Trichoderma virens ATCC 9645?
Marked response: 76.3

Exam item: Give the reported growth yield for CCN1CC(CCN2CCOCC2)C(c2ccccc2)(c2ccccc2)C1=O (stereo not given) [Doxapram hydrochloride] + CCCCNC(=O)OCC#CI [3-iodo-2-propynyl butylcarbamate (IPBC)] (system: Trichoderma virens ATCC 9645).
Marked response: 91.1

----------
tested on: Trichoderma virens ATCC 9645; experiment: growth yield (OD600) with compound + IPBC relative to untreated control; higher = less growth inhibition; details: compound concentration: 100 uM; IPBC concentration: 200 ng/ml; 40 h
Where a name gives a salt, the structure may show the parent alone. In all, about 1,300 compounds went through this assay and about 130 (10%) showed an effect of 50% or more. The sample as a whole holds a higher share of strong results than the screen did.
MEASURED_PARAMETER: growth yield

- MOLECULE: "O=C(Oc1cccc2cccnc12)c1ccccc1 [Benzoxiquine] + CCCCNC(=O)OCC#CI [3-iodo-2-propynyl butylcarbamate (IPBC)]"
  MEASURED_PARAMETER: "growth yield"
  RESULT: "36.4%"

Exam item: Look up growth yield: CC(=O)Oc1ccccc1C(=O)Oc1ccccc1C(=O)O [Acetylsalicylsalicylic acid] + CCCCNC(=O)OCC#CI [3-iodo-2-propynyl butylcarbamate (IPBC)]
Marked response: 85%

Exam item: I have this molecule here, CN(C)/N=N/c1[nH]cnc1C(N)=O [Dacarbazine] + CCCCNC(=O)OCC#CI [3-iodo-2-propynyl butylcarbamate (IPBC)] , and I need its recorded growth yield.
Marked response: 86.2%

Exam item: GET /values?readout=growth yield&item= O=C1OCCN1/N=C/c1ccc([N+](=O)[O-])o1 [Furazolidone] + CCCCNC(=O)OCC#CI [3-iodo-2-propynyl butylcarbamate (IPBC)]
Marked response: 76.2%

Exam item: Requested read-out: growth yield. Entry: Cc1cnc(C(=O)O)c[n+]1[O-] [Acipimox] + CCCCNC(=O)OCC#CI [3-iodo-2-propynyl butylcarbamate (IPBC)]
Marked response: 85.3%

Exam item: # input molecule: COc1ccc(C(=O)CC(=O)c2ccc(C(C)(C)C)cc2)cc1 [Avobenzone] + CCCCNC(=O)OCC#CI [3-iodo-2-propynyl butylcarbamate (IPBC)] ; wanted: its growth yield
Marked response: 67.8%

Exam item: Which growth yield value belongs to Nc1ncnc2c1ncn2[C@@H]1O[C@H](CO)[C@@H](O)[C@@H]1O [Vidarabine] + CCCCNC(=O)OCC#CI [3-iodo-2-propynyl butylcarbamate (IPBC)] ?
Marked response: 121%

Exam item: Can you look up the measured growth yield of O=C(O)c1cn(C2CC2)c2cc(N3CCNCC3)c(F)cc2c1=O [Ciprofloxacin hydrochloride monohydrate] + CCCCNC(=O)OCC#CI [3-iodo-2-propynyl butylcarbamate (IPBC)] for me?
Marked response: 86.2%

Exam item: Can you look up the measured growth yield of COc1ccc2[nH]cc(CCNC(C)=O)c2c1 [Melatonin] + CCCCNC(=O)OCC#CI [3-iodo-2-propynyl butylcarbamate (IPBC)] for me?
Marked response: 82.9%

Exam item: Could you tell me which growth yield is on file for c1ccc2c(CC3=NCCN3)cccc2c1 [Naphazoline hydrochloride] + CCCCNC(=O)OCC#CI [3-iodo-2-propynyl butylcarbamate (IPBC)] ?
Marked response: 87%

Exam item: Looking for the measured growth yield of CC(C)NC[C@@H](O)COc1ccc(CC(N)=O)cc1 [(R)-(+)-Atenolol] + CCCCNC(=O)OCC#CI [3-iodo-2-propynyl butylcarbamate (IPBC)] , can you help?
Marked response: 101%
